Sourced from patent US10562947B2

molecular target: PKCβII(h) (Homo sapiens, UniProt P05771); test: Kinase Profiling Assay; format: biochemical; details: 100 μM peptide
Sequence (P05771 1-673 isoform P05771-2): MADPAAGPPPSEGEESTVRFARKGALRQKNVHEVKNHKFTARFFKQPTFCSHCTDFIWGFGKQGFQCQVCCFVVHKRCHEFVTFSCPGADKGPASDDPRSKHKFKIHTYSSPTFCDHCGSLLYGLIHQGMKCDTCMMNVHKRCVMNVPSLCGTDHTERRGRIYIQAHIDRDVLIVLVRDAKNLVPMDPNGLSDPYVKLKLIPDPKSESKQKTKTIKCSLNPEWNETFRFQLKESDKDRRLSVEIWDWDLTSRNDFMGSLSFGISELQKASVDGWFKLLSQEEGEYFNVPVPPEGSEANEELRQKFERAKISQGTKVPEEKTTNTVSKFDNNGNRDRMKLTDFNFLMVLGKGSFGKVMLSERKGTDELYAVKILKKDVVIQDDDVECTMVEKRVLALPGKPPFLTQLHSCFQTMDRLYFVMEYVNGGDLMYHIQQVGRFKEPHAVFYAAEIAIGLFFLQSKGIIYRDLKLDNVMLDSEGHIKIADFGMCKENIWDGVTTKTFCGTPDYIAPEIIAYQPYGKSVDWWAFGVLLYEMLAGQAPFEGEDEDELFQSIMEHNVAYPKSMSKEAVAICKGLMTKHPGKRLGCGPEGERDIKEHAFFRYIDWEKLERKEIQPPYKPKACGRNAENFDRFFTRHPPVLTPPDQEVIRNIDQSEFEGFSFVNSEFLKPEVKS
Property name: PKCβII(h) % activity
Write your answer as a measured quantity: the number, then the unit.

Use these answered entries as a reference point.
[[record]]
seq = "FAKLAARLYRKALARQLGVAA [MMI-0300]"
experimental_result = "82%"

[[record]]
seq = "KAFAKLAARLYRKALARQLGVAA [MMI-0400]"
experimental_result = "75%"

[[record]]
seq = "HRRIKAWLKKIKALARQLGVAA (Mammalian) [MMI-0500]"
experimental_result = "3%"


Field: next sequence
Note to self: PKCβII(h) % activity recorded for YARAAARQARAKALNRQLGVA (Mammalian) [MMI-0200] was 100%
